study-system: Genome polyprotein (Dengue virus type 2 (strain 16681-PDK53)) (UniProt P29991)
Sequence (P29991 whole entry, looked up): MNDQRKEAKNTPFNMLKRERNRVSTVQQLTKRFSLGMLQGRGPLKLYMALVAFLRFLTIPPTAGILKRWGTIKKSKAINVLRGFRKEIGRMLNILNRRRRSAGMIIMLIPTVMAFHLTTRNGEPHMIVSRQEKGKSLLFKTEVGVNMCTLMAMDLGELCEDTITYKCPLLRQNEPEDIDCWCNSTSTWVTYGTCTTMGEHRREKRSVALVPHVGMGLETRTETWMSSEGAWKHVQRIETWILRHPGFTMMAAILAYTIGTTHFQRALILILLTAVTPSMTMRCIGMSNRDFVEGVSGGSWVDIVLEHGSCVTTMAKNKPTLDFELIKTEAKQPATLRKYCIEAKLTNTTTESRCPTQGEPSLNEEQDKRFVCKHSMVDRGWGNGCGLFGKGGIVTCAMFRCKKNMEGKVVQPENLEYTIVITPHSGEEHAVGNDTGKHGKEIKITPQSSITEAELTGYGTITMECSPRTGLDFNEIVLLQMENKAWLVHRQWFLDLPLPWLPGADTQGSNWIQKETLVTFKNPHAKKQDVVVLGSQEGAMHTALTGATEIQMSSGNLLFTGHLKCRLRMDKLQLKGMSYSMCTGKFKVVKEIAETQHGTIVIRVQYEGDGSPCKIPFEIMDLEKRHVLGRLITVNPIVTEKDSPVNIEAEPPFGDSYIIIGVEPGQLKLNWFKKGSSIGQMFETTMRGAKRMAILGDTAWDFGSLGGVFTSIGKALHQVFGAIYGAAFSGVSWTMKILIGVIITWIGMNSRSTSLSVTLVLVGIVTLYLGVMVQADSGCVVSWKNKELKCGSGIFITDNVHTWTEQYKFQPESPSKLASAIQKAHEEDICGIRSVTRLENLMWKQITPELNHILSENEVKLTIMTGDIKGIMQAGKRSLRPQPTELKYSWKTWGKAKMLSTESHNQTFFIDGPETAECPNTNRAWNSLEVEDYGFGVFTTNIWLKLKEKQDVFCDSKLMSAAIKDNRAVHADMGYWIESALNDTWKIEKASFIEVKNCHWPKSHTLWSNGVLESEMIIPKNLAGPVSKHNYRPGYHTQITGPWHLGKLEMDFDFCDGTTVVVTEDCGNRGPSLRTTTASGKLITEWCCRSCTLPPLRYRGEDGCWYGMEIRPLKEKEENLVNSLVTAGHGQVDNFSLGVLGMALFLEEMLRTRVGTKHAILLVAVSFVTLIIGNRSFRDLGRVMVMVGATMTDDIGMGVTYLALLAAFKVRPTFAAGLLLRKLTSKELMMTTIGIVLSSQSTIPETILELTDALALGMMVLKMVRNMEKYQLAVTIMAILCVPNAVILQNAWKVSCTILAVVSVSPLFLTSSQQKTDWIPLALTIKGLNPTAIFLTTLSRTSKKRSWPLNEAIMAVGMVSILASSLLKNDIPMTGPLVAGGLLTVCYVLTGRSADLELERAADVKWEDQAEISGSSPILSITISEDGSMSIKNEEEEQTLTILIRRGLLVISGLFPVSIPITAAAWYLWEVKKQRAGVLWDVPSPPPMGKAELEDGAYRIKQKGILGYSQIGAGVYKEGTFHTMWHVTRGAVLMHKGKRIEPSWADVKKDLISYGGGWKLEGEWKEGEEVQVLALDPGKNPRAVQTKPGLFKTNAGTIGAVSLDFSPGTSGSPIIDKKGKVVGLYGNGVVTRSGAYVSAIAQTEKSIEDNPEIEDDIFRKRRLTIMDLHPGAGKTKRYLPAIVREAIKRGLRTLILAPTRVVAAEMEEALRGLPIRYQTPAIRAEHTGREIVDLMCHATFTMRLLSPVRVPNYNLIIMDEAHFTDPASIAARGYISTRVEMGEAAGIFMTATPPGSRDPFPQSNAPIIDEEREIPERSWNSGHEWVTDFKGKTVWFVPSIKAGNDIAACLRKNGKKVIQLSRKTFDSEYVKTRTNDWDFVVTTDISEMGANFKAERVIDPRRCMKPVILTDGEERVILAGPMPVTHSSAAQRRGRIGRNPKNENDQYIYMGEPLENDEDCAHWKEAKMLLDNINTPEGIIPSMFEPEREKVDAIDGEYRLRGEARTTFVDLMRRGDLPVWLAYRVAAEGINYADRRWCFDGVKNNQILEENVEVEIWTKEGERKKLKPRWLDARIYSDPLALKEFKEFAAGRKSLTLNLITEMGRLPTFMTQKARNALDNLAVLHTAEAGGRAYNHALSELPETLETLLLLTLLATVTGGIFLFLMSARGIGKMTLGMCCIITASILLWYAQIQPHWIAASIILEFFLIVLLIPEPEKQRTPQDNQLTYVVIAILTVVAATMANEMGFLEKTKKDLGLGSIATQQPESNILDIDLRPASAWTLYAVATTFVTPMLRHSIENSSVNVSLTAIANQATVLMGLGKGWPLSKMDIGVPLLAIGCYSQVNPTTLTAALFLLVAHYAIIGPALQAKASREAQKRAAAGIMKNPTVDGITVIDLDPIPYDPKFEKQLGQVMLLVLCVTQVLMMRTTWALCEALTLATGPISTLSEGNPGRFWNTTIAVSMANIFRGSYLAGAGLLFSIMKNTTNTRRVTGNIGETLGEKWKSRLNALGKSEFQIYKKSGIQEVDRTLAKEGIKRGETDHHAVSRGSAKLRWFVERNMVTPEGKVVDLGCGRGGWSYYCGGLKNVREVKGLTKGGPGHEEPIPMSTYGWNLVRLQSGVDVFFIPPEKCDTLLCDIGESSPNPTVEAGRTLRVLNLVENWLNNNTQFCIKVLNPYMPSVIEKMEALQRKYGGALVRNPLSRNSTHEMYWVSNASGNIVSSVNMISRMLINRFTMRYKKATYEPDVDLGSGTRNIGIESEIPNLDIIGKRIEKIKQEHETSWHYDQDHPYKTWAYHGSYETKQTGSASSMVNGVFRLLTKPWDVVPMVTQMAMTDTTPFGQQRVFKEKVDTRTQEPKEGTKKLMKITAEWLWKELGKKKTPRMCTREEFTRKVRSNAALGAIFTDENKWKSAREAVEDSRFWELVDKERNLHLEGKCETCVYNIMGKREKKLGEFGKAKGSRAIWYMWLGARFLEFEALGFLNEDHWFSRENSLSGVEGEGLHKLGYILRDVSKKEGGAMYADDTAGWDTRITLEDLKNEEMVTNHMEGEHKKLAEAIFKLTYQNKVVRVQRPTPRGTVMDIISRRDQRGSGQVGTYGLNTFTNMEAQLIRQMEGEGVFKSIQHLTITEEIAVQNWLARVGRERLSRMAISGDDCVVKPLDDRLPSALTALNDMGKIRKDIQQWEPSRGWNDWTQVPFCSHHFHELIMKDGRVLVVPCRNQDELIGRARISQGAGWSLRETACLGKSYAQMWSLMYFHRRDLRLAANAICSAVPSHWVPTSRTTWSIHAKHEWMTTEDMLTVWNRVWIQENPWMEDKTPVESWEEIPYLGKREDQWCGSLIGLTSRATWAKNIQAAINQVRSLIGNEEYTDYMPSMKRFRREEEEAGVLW
assay: flavivirus cap methylation enzyme inhibition – biochemical, confirmation dose response, primary screen (AID 588689)
stated-conditions: Dengue-2 NS5 methyltransferase capping enzyme assay, at 25 µM, hits give high values
Hit rate of the full screen: of about 340,000 compounds, about 1,000 (0.29%) were called active. A selection follows. Results with a measured potency or affinity are listed apart.
# inhibition annotations
Give just the number in %; leave the unit off.

// solved cases for inhibition follow
molecule=CCN1CCN(CCCN(Cc2ccco2)C(=S)Nc2cccc(Cl)c2C)CC1 measurement_unit=% data_value=5.26
molecule=Cc1cc(C(c2ccc(O)cc2)c2cc(C)c(O)cc2C)c(C)cc1O measurement_unit=% data_value=-0.79
molecule=Cc1ccc(S(=O)(=O)N2CCCN(C(=O)c3ccc(-n4nccc4C)cc3)CC2)cc1 measurement_unit=% data_value=-5.13
molecule=Cc1cccc(NC(=O)c2cccc(NC(=O)c3ccco3)c2)c1 measurement_unit=% data_value=-3.49
molecule=O=[N+]([O-])c1ccc(NCCCN2CCOCC2)c([N+](=O)[O-])c1 measurement_unit=% data_value=-5.47
molecule=COc1ccccc1/C=C1\SC(=S)N(CCC(=O)Nc2ccc(C(=O)O)c(O)c2)C1=O measurement_unit=% data_value=19.8
molecule="CCC1(C2=CCCCC2)C(=O)NC(=O)N=C1N (stereo unspecified)" measurement_unit=% data_value=1.17
molecule=O=C(O)CCN1C(=O)/C(=C\c2cccc(OCc3ccccc3)c2)SC1=S measurement_unit=% data_value=40.6

I would be grateful if you could share the reported inhibition for "O=C(Nc1cccc([N+](=O)[O-])c1)c1cc(S(=O)(=O)Nc2ccccn2)ccc1Cl" .
0.65

Value lookup for inhibition; key = "O=C(CCN1C(=O)/C(=C/c2ccccc2Cl)SC1=S)NNC(=O)c1ccccc1O"
-5.13

Need inhibition of "O=C(CN1C(=O)S/C(=C\C=C\c2ccccc2)C1=O)Nc1ccccc1C(=O)O" , thanks.
24.3

Quick one: inhibition for "CCOc1ccc(-n2c(SCc3cc(=O)oc4cc(C)ccc34)nnc2-c2cccnc2)cc1" ?
-5.85

Fill in the blank: the reported inhibition of "Cc1ccc(-n2nnnc2CS(=O)(=O)c2ccccc2)c(C)c1" is ____.
-5.86

So what's the measured inhibition for this one? "COc1ccc(S(=O)(=O)NCCCN2CCCC2=O)cc1OC"
-6.1

Endpoint output: inhibition of "COc1cccc(/C=C2\SC(=S)N(CCC(=O)Nc3ccc(O)cc3)C2=O)c1" . Value?
3.49

Find the recorded inhibition belonging to "O=C(Cc1cccc2ccccc12)Nc1cc(Cl)ccc1C(=O)O" and report it.
-1.36

What does the data say about its inhibition? Entry: "Cc1ccc(NC(=O)COc2cccc(/C=C3\SC(=S)N(CCC(=O)O)C3=O)c2)cc1Cl"
0.88

I am curious: what inhibition value has been reported for "COCCN(C(=S)Nc1ccc(Cl)cc1OC)C1CCN(C(C)=O)CC1" ?
-5.17

May I ask what inhibition has been recorded for "O=C(CCN1C(=O)S/C(=C/c2ccc(F)cc2)C1=O)Nc1ccc(O)c(C(=O)O)c1" ?
19.6

Suppose we examine the molecule "O=c1n(Cc2ccccc2F)c2ccccc2n1Cc1ccccc1F" ; what inhibition value has been reported?
-3.2

Which inhibition reading was recorded for the molecule "O=C(COc1ccccc1C(=O)O)Nc1cccc2ccccc12" ?
1.47
